Values from ChEMBL document CHEMBL1961873

Measured inhibition accompanies every entry in the list below.
Tested on: Proto-oncogene tyrosine-protein kinase receptor Ret (Homo sapiens), P07949 [Y791F]
Sequence (P07949 whole entry Y791F): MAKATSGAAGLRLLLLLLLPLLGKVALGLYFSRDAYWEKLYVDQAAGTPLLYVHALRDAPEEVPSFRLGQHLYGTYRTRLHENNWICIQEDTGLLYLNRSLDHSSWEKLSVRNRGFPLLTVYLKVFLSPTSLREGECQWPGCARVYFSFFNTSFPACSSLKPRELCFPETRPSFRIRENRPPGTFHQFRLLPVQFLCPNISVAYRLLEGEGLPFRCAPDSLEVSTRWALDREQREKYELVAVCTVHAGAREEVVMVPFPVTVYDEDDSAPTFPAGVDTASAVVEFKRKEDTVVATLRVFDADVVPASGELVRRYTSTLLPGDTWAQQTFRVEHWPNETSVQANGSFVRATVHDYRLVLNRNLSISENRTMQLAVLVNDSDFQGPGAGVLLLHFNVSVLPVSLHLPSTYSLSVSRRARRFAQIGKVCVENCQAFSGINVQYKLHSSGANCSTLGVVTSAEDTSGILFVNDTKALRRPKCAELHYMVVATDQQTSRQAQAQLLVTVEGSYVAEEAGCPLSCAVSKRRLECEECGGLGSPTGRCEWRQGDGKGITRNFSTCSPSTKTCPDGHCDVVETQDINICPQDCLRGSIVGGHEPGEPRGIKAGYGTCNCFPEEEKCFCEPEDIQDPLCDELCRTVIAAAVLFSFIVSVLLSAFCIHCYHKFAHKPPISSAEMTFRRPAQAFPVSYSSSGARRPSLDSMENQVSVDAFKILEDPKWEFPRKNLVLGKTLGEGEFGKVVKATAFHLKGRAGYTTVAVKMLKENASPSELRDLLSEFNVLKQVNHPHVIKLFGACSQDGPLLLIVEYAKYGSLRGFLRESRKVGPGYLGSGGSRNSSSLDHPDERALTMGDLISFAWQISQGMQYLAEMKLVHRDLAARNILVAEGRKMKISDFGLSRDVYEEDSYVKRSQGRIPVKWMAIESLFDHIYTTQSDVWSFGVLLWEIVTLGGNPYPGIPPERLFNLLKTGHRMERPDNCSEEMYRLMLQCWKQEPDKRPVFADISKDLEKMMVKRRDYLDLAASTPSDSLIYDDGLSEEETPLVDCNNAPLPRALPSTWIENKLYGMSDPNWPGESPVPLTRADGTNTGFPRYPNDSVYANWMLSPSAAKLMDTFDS
recorded_conditions: at 1 µM
Record the value in %, omitting the unit from your answer.

As a guide, the following entries are already answered.
CN1CCC(n2cnc(-c3ccc(F)cc3)c2-c2ccnc(Nc3ccccc3)n2)CC1: 36.2
CC(=O)Nc1cccc(C#Cc2cncnc2Nc2ccc(OCc3cccc(F)c3)c(Cl)c2)c1: 13.3
O=S(=O)(CCNCc1ccc(-c2ccc3ncnc(Nc4ccc(OCc5cccc(F)c5)c(Cl)c4)c3c2)o1)c1ccccc1: 15.4
CCc1nn2ncccc2c1-c1ccnc(NC2CC2)n1: 6.92
Fc1ccc(-c2nn3ccccc3c2-c2ccncc2)cc1: 7.11
c1ccc(COc2ccc(Nc3ncnc4ccc(-c5ccco5)cc34)cc2)cc1: 1.21

# input molecule: `COc1cc(N2CCN(C(C)C)CC2)ccc1Nc1nc(Nc2ccc(F)cc2C(N)=O)c2cc[nH]c2n1` ; wanted: its inhibition
16.6

# input molecule: `CC(=O)NCc1cccc(C#Cc2cncnc2Nc2ccc(OCc3cccc(F)c3)c(Cl)c2)c1` ; wanted: its inhibition
3.42
